FYI, the data here is from patent US4558052A.

# System: male NMRI-mice
# testMethodNotes: Acute toxicity LD50 i.p. and p.o. in mice
# Format: in vivo
# studyConditions: p.o., probit analysis
Structures can show the parent of a compound that is named as a salt.

molecule	Toxicity LD50 p.o. [µmol/kg]
CCC1C2CC3C4N(C)c5ccc(Br)cc5C45CC(C2C5O)N3C1O (stereo not shown) [10-bromoisosandwicine hydrogen tartrate, 10-bromoisosandwicinium hydrogentartrate]	65
CCC1C2CC3C4N(C)c5ccccc5C45CC(C2C5O)N3C1O (stereo not shown) [Sandwicine hydrogen tartrate]	1530
CCC1C2CC3C4N(C)c5ccccc5C45CC(C2C5O)N3C1O (stereo not shown) [Isosandwicine hydrogen fumarate]	471
CCC1C2CC3C4N(C)c5ccc(Br)cc5C45CC(C2C5O)N3C1O (stereo not shown) [10-bromosandwicine hydrogen tartrate, 10-bromosandwicine hydrogentartrate]	2200

###

# System: male NMRI-mice
# testMethodNotes: Acute toxicity LD50 i.p. and p.o. in mice
# Format: in vivo
# studyConditions: i.p., probit analysis
Structures can show the parent of a compound that is named as a salt.
assayReadout: Toxicity LD50 i.p. (µmol/kg)

compound	endpointResult
CCC1C2CC3C4N(C)c5ccc(Br)cc5C45CC(C2C5O)N3C1O (stereo not shown) [10-bromosandwicine hydrogen tartrate, 10-bromosandwicine hydrogentartrate]	307
CCC1C2CC3C4N(C)c5ccc(Br)cc5C45CC(C2C5O)N3C1O (stereo not shown) [10-bromoisosandwicine hydrogen tartrate, 10-bromoisosandwicinium hydrogentartrate]	25

###

# System: male NMRI-mice
# testMethodNotes: Minimum symptom dose at which any undesirable side effects are detected (Campbell and Richter)
# Type: in vivo
# studyConditions: dose causing changes in behaviour in 2 out of 3 mice
Counter-ions that a name gives are not always drawn.
assayReadout: Minimum symptom dose i.p. (µmol/kg)

compound	assayReadout	endpointResult
CCC1C2CC3C4N(C)c5ccccc5C45CC(C2C5O)N3C1O (stereo not shown) [Isosandwicine hydrogen fumarate]	Minimum symptom dose i.p.	10
CCC1C2CC3C4N(C)c5ccc(Br)cc5C45CC(C2C5O)N3C1O (stereo not shown) [10-bromoisosandwicine hydrogen tartrate, 10-bromoisosandwicinium hydrogentartrate]	Minimum symptom dose i.p.	3
CCC1C2CC3C4N(C)c5ccc(Br)cc5C45CC(C2C5O)N3C1O (stereo not shown) [10-bromosandwicine hydrogen tartrate, 10-bromosandwicine hydrogentartrate]	Minimum symptom dose i.p.	92
CCC1C2CC3C4N(C)c5ccccc5C45CC(C2C5O)N3C1O (stereo not shown) [Sandwicine hydrogen tartrate]	Minimum symptom dose i.p.	58
